# Measurement Protocol: ATG_AP_1_CIS: Attagene CIS-FACTORIAL HepG2 Assay for human Activator Protein 1 (AP-1) (AID 2282931)
# Assay Conditions: HepG2 Attagene cis-factorial AP-1 reporter mRNA; actives raise or lower the signal
The source made the active and inactive calls. The calls were made as follows: active = hit-call score of the fitted dose curve at least 0.9, where 1 is the maximum; inactive = score below 0.9.
Choose one outcome from this list and give only that: label 1 (active), label 0 (inactive)

1. CCCOC(=O)c1ccc(C(=O)OCCC)nc1 | label 0

Tell me the assay call for Oc1ccc(C(c2ccc(O)cc2)C(Cl)(Cl)Cl)cc1 please. label 0

Tell me the assay call for OB(O)O please. label 0

====

# Read-out: Intercellular Adhesion Molecule 1 (ICAM1), ICAM1 (gene 3383)
# Measurement Protocol: LTEA_HepaRG_ICAM1: Life Technologies and Expression Analysis (LTEA) Assay for Intercellular Adhesion Molecule 1 (ICAM1) using HepaRG (AID 2283507)
# Assay Conditions: mRNA level, 48 h; actives raise or lower the signal
Active and inactive are the calls of the source. The calls were made as follows: active = hit-call score of the fitted dose curve at least 0.9, where 1 is the maximum; inactive = score below 0.9.
Choose one outcome from this list and give only that: Y for active, N for inactive

// below: answered molecules
1. CN(C)C(=O)Nc1ccc(Cl)c(Cl)c1 | N
2. CCCCCCC(C)OC(=O)COc1nc(F)c(Cl)c(N)c1Cl (centres undefined) | N
3. OB(O)O | N

Tell me the assay call for Cc1nn(C)c(Oc2ccccc2)c1C=NOCc1ccc(C(=O)OC(C)(C)C)cc1 please. Y
